Study target: OAT1 (Homo sapiens)
Sequence (Q4U2R8 whole entry): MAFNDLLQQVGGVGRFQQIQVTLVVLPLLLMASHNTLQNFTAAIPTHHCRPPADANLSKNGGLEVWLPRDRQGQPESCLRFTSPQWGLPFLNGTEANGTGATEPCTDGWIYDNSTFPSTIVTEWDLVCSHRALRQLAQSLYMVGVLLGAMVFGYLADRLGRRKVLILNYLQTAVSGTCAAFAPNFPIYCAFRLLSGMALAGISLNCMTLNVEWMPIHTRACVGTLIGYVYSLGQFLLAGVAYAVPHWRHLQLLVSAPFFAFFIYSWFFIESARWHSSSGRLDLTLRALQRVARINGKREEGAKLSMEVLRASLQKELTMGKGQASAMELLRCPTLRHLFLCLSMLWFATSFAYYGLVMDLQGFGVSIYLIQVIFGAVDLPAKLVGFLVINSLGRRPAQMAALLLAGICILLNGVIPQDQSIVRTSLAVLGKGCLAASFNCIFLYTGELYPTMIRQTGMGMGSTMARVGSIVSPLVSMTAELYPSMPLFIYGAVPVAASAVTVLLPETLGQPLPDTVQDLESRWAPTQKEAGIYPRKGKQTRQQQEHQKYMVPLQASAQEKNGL
Experiment notes: OAT1 inhibition by antibiotics, transfected HEK293 cells, tanshinol as substrate
Condition notes: antibiotic as perpetrator, tanshinol (X8) as victim; (Cmax × fu-p × R)/IC50
Here the recorded Inhibition DDI index, OAT1 is given for each entry.
Parameter measured: Inhibition DDI index, OAT1

                                   molecule          parameter_measured  observed
0  Cc1onc(-c2c(F)cccc2Cl)c1C(=O)N[C@@H]1C(=O)N2[C@@H]1SC(C)(C)[C@@H]2C(=O)O [A19, flucloxacillin]  Inhibition DDI index, OAT1      0.16
1  CCN1CCN(C(=O)N[C@@H](C(=O)N[C@@H]2C(=O)N3[C@@H]2SC(C)(C)[C@@H]3C(=O)O)c2ccccc2)C(=O)C1=O [A13, piperacillin]  Inhibition DDI index, OAT1      0.75
2  C[C@@H](c1ncncc1F)[C@](O)(Cn1cncn1)c1ccc(F)cc1F [A45, voriconazole]  Inhibition DDI index, OAT1      0.22
3  Cc1onc(-c2ccccc2)c1C(=O)N[C@@H]1C(=O)N2[C@@H]1SC(C)(C)[C@@H]2C(=O)O [A17, oxacillin]  Inhibition DDI index, OAT1      0.52

###

Study target: UGT1A6 (Homo sapiens, UniProt P19224)
Sequence (P19224 27-532): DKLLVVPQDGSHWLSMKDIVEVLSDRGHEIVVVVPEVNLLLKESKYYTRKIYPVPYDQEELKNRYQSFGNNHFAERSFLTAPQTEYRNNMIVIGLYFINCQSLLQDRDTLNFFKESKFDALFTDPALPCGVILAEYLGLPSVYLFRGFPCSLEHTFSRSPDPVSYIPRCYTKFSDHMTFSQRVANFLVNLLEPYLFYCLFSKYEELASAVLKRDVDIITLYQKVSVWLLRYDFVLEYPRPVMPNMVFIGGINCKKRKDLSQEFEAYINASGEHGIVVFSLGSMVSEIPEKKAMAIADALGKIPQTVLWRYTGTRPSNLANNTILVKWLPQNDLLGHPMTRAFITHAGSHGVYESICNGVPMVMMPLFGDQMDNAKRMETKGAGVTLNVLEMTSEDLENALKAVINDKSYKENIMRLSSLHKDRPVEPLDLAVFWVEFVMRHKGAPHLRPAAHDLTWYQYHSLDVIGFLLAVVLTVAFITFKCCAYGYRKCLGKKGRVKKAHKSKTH
pIC50: −log10 of the molar value.
Parameter measured: pIC50

>>> print(df.to_string())
                                 smiles_str  observed
0  O=C(/C=C/c1ccc(O)c2c1[C@H](C(=O)O[C@H](Cc1ccc(O)c(O)c1)C(=O)O)[C@@H](c1ccc(O)c(O)c1)O2)O[C@H](Cc1ccc(O)c(O)c1)C(=O)O      4.82

###

Study target: CYP2C9 (Homo sapiens, UniProt P11712)
Sequence (P11712 whole entry): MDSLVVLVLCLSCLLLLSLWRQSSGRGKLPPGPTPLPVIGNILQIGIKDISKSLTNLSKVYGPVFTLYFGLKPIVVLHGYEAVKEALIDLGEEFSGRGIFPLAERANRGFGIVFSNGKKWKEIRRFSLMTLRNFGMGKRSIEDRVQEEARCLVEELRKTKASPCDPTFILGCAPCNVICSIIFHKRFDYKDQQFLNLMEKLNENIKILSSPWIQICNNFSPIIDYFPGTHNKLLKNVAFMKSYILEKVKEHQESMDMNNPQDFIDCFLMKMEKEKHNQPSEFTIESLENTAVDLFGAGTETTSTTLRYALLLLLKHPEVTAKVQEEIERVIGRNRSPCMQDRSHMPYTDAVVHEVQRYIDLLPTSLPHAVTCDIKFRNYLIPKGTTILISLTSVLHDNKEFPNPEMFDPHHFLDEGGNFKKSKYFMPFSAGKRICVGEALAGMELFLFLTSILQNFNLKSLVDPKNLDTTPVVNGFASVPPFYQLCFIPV
Parameter measured: IC50 (µM)

Molecule	Study target	Measure unit	Observed
O=C(/C=C/c1ccc(O)c2c1[C@H](C(=O)O[C@H](Cc1ccc(O)c(O)c1)C(=O)O)[C@@H](c1ccc(O)c(O)c1)O2)O[C@H](Cc1ccc(O)c(O)c1)C(=O)O [X10, salvianolic acid B]	CYP2C9 (Homo sapiens, UniProt P11712)	µM	75

###

Study target: OATP1B1 (Homo sapiens)
Sequence (Q9Y6L6 whole entry): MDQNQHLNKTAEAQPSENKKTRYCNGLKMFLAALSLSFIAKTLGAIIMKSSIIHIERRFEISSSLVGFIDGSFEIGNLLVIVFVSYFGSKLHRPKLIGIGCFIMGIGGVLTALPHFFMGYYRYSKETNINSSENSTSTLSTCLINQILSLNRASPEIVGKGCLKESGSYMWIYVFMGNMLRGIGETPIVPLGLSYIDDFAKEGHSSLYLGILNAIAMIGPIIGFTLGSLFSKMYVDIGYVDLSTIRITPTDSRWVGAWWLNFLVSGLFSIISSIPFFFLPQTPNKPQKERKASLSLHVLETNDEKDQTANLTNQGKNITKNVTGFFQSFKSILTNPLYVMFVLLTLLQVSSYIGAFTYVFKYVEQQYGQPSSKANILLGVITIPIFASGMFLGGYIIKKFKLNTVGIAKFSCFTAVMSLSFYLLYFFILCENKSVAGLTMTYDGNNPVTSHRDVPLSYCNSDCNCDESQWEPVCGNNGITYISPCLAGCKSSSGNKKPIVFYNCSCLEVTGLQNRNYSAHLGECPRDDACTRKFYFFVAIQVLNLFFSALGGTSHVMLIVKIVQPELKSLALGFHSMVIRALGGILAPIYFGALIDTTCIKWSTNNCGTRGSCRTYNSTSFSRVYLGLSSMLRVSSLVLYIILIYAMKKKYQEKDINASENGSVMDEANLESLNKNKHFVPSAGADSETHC
pIC50: −log10 of the molar value.
Parameter measured: pIC50

                                 smiles_str  parameter_measured  observed
0  O=C(/C=C/c1ccc(O)c2c1[C@H](C(=O)O[C@H](Cc1ccc(O)c(O)c1)C(=O)O)[C@@H](c1ccc(O)c(O)c1)O2)O[C@H](Cc1ccc(O)c(O)c1)C(=O)O               pIC50      4.42

###

Study target: CYP2C19 (Homo sapiens, UniProt P33261)
Sequence (P33261 whole entry): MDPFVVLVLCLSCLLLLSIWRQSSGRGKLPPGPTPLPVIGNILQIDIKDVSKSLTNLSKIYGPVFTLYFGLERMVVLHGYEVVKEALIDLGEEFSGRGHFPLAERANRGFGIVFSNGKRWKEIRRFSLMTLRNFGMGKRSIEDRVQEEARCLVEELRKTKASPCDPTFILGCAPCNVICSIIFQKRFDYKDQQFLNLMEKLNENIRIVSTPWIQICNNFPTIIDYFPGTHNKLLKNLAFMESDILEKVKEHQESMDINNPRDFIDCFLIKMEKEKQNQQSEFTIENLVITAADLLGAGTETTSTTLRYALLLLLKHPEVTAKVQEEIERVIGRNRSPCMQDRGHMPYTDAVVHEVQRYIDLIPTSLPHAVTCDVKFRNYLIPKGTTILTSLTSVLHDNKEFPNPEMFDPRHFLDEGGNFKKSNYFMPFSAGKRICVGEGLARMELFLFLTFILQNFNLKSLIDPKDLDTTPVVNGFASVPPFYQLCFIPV
Experiment notes: CYP2C19 inhibition by XueBiJing compounds, cDNA-expressed enzyme [CEC→CHC]
Format: in vitro ADME
Condition notes: human, cDNA-expressed CYP2C19, probe CEC (25 μmol/L)
Parameter measured: inhibition at 100 μmol/L

In [3]: df
Out[3]:
                                 smiles_str        parameter_measured   observed
0  O=C(/C=C/c1ccc(O)c2c1[C@H](C(=O)O[C@H](Cc1ccc(O)c(O)c1)C(=O)O)[C@@H](c1ccc(O)c(O)c1)O2)O[C@H](Cc1ccc(O)c(O)c1)C(=O)O  inhibition at 100 μmol/L  68 to 80%

###

Study target: UniProt Q4U2R8
Experiment notes: OAT1 inhibition by antibiotics, transfected HEK293 cells, tanshinol as substrate
Condition notes: human
Parameter measured: inhibition at 5000 μmol/L

>>> print(df.to_string())
                                 smiles_str   observed
0  CCN1CCN(C(=O)N[C@@H](C(=O)N[C@@H]2C(=O)N3[C@@H]2SC(C)(C)[C@@H]3C(=O)O)c2ccccc2)C(=O)C1=O  63 to 88%

###

# inhibition at 1000 μmol/L per record follows
Study target: OATP1B3 (Homo sapiens, UniProt Q9NPD5)
Experiment notes: in vitro
Parameter measured: inhibition at 1000 μmol/L

                                 smiles_str                            study_target   observed
0  CO[C@@]1(NC(=O)Cc2cccs2)C(=O)N2C(C(=O)O)=C(COC(N)=O)CS[C@@H]21  OATP1B3 (Homo sapiens, UniProt Q9NPD5)      > 90%
1  Cc1onc(-c2c(F)cccc2Cl)c1C(=O)N[C@@H]1C(=O)N2[C@@H]1SC(C)(C)[C@@H]2C(=O)O  OATP1B3 (Homo sapiens, UniProt Q9NPD5)      > 90%
2  Cc1onc(-c2ccccc2)c1C(=O)N[C@@H]1C(=O)N2[C@@H]1SC(C)(C)[C@@H]2C(=O)O  OATP1B3 (Homo sapiens, UniProt Q9NPD5)      > 90%
3  CCN1CCN(C(=O)N[C@@H](C(=O)N[C@@H]2C(=O)N3C(C(=O)O)=C(CSc4nnnn4C)CS[C@H]23)c2ccc(O)cc2)C(=O)C1=O  OATP1B3 (Homo sapiens, UniProt Q9NPD5)  64 to 88%
4  C[C@@H](c1ncncc1F)[C@](O)(Cn1cncn1)c1ccc(F)cc1F  OATP1B3 (Homo sapiens, UniProt Q9NPD5)  64 to 88%
5  CO/N=C(\C(=O)N[C@@H]1C(=O)N2C(C(=O)O)=C(CSc3nc(=O)c(=O)[nH]n3C)CS[C@H]12)c1csc(N)n1  OATP1B3 (Homo sapiens, UniProt Q9NPD5)  64 to 88%
6  CO/N=C(\C(=O)N[C@@H]1C(=O)N2C(C(=O)O)=C(COC(C)=O)CS[C@H]12)c1csc(N)n1  OATP1B3 (Homo sapiens, UniProt Q9NPD5)  64 to 88%
7  Cn1nnnc1SCC1=C(C(=O)O)N2C(=O)[C@@H](NC(=O)[C@H](O)c3ccccc3)[C@H]2SC1  OATP1B3 (Homo sapiens, UniProt Q9NPD5)      > 90%

###

Study target: OATP1B3 (Homo sapiens)
Sequence (Q9NPD5 1-702): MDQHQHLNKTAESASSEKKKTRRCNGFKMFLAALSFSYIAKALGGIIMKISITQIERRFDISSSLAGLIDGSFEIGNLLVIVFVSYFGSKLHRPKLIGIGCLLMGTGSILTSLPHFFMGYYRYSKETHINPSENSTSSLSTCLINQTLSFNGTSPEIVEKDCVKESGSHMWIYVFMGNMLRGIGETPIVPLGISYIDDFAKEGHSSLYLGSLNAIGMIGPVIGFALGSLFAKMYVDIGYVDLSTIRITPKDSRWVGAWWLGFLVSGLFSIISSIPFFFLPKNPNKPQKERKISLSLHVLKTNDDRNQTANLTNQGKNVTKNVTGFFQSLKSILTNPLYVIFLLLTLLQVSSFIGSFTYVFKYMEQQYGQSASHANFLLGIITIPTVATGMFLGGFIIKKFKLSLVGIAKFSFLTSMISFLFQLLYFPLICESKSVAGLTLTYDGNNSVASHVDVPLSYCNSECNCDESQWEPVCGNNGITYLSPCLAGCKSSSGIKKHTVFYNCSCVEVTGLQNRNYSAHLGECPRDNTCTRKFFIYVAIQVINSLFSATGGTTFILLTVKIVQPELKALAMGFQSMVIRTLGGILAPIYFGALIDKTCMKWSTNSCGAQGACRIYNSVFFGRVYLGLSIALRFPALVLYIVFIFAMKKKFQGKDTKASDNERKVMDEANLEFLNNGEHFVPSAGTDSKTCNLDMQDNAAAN
Experiment notes: in vitro
Starred links: 1 amine or outer side, 2 acyl side, 3 side chain; linkers in the order of their positions; H or OH if unused. Positions of bridges follow the written chain, without caps; N, C: chain ends. Non-standard residues stand in square brackets, D forms with d. Residues, ends and D or L forms follow the SMILES beside them. *: point of attachment. hTyr(3S-OH,4S-OH,3'-OSO3H) = N[C@H](C(=O)O)[C@H](O)[C@@H](O)c1ccc(O)c(OS(=O)(=O)O)c1; Orn(4R-OH,5R-OH) = O=C([C@H](C[C@@H](O)[C@@H](O)N[*:3])N[*:1])[*:2]; Pro(3S-OH,4S-Me) = C[C@H]1CN[C@H](C(=O)O)[C@H]1O; X1 = CCCCCOc1ccc(-c2cc(-c3ccc(C(=O)*)cc3)no2)cc1; Gln(3R-OH) = NC(=O)C[C@@H](O)[C@H](N)C(=O)O; Hyp = O=C(O)[C@@H]1C[C@@H](O)CN1
Listed next: entries and their corresponding inhibition at 100 μmol/L.

Compound	inhibition at 100 μmol/L
CCCCCOc1ccc(-c2cc(-c3ccc(C(=O)N[C@H]4C[C@@H](O)[C@@H](O)NC(=O)[C@@H]5[C@@H](O)[C@@H](C)CN5C(=O)[C@H]([C@H](O)CC(N)=O)NC(=O)[C@H]([C@H](O)[C@@H](O)c5ccc(O)c(OS(=O)(=O)O)c5)NC(=O)[C@@H]5C[C@@H](O)CN5C(=O)[C@H]([C@@H](C)O)NC4=O)cc3)no2)cc1 [A40, micafungin] (X1-[Orn(4R-OH,5R-OH)]T[Hyp][hTyr(3S-OH,4S-OH,3'-OSO3H)][Gln(3R-OH)][Pro(3S-OH,4S-Me)]; lactam 1-C)	> 90%
COc1c(N2C[C@@H]3CCCN[C@@H]3C2)c(F)cc2c(=O)c(C(=O)O)cn(C3CC3)c12 [A33, moxifloxacin]	64 to 88%
CCC(C)n1ncn(-c2ccc(N3CCN(c4ccc(OCC5COC(Cn6cncn6)(c6ccc(Cl)cc6Cl)O5)cc4)CC3)cc2)c1=O (stereo not shown) [A44, itraconazole]	64 to 88%
CC[C@H](C)C[C@H](C)CCCCCCCCC(=O)N[C@H]1C[C@@H](O)[C@@H](NCCN)NC(=O)[C@@H]2[C@@H](O)CCN2C(=O)[C@H]([C@H](O)CCN)NC(=O)[C@H]([C@H](O)[C@@H](O)c2ccc(O)cc2)NC(=O)[C@@H]2C[C@@H](O)CN2C(=O)[C@H]([C@@H](C)O)NC1=O [A41, caspofungin]	> 90%
CO[C@H]1/C=C/O[C@@]2(C)Oc3c(C)c(O)c4c(O)c(c(/C=N/N5CCN(C)CC5)c(O)c4c3C2=O)NC(=O)/C(C)=C\C=C\[C@H](C)[C@H](O)[C@@H](C)[C@@H](O)[C@@H](C)[C@H](OC(C)=O)[C@@H]1C [A39, rifampin]	> 90%
C[C@@H]1[C@H](O)[C@@H](C)/C=C/C=C/C=C/C=C/C=C/C=C/C=C/[C@H](O[C@@H]2O[C@H](C)[C@@H](O)[C@H](N)[C@@H]2O)C[C@@H]2O[C@](O)(C[C@@H](O)C[C@@H](O)[C@H](O)CC[C@@H](O)C[C@@H](O)CC(=O)O[C@H]1C)C[C@H](O)[C@H]2C(=O)O [A42, amphotericin B]	64 to 88%
CC[C@H]1OC(=O)[C@H](C)[C@@H](O[C@H]2C[C@@](C)(OC)[C@@H](O)[C@H](C)O2)[C@H](C)[C@@H](O[C@@H]2O[C@H](C)C[C@H](N(C)C)[C@H]2O)[C@](C)(O)C[C@@H](C)C(=O)[C@H](C)[C@@H](O)[C@]1(C)O [A34, erythromycin]	> 90%
